These entries and their values trace back to PubChem BioAssay AID1421.

SYSTEM NAME: Prostaglandin E2 receptor EP2 subtype (Homo sapiens) (UniProt P43116)
Sequence (P43116 whole entry, looked up): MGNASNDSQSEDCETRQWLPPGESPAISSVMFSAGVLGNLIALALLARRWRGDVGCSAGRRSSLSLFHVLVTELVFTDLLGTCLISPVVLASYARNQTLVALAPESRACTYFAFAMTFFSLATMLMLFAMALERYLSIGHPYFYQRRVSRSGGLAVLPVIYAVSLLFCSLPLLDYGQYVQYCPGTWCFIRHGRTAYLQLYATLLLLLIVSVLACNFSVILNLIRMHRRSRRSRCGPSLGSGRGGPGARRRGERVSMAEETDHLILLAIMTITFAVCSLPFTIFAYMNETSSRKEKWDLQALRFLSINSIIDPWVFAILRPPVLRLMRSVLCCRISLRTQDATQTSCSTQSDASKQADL
ASSAY PROCEDURE: EP2 receptor modulators, dose response, cell-based, human EP2, PGE2 EC50 shift (AID 1421)
TEST PARAMETERS: EP2-expressing cells, PGE2 EC50 shift by compound; measured here: PGE2 EC50 at 6.7 uM compound
RECORDED ENDPOINT: PGE2 EC50 with compound
Note to self: number, then unit, no commentary.

Consider the following illustrative entries.
Input: Using known records, supply PGE2 EC50 with compound for CCOC(=O)c1ccccc1NC(=O)C1COc2ccccc2O1 (centres undefined)
Output: 0.66 nM

Input: Give the reported PGE2 EC50 with compound for this compound. CCOC(=O)c1c(NC(=O)CSc2nnc(N)s2)sc(C)c1-c1ccc(C)cc1
Output: 0.48 nM

Input: For CCOC(=O)c1c(N)sc2c1CCC(CC)C2 (centres undefined) , write its PGE2 EC50 with compound.
Output: 1.5 nM

Input: Input CCOc1ccccc1NC(=O)c1ccccc1-c1nc(-c2ccccc2)no1 , output reported PGE2 EC50 with compound.
Output: 1.14 nM

Input: Output measured PGE2 EC50 with compound for this item: CN(C)c1ncc(S(=O)(=O)c2ccc(Cl)cc2)c(-c2ccccc2)n1
Output: 1.08 nM

Input: Report measured PGE2 EC50 with compound; entry is CCC(=O)O[C@H]1CCC2C3CCC4=CC(=O)CC[C@]4(C)C3CC[C@@]21C (some centres undefined)
Output: 0.76 nM

Input: For COc1cc2ccccc2cc1C(=O)NC(=S)Nc1cccc(C(=O)O)c1 , write its PGE2 EC50 with compound.
Output: 0.75 nM

Input: Provide only the value of recorded PGE2 EC50 with compound for CCOC(=O)c1c(-c2ccc(C)o2)csc1NC(=O)CN1CCCCC1
Output: 0.73 nM

More entries:
Input: Report PGE2 EC50 with compound for c1ccc2c(c1)OCC(c1csc3ncnc(N4CCCCC4)c13)O2 (centres undefined)
Output: 2.54 nM

Input: Tell me measured PGE2 EC50 with compound for C=CCn1c(=O)c2c3c(sc2n2c(Nc4ccc(OC)cc4)nnc12)CCCC3 please.
Output: 0.77 nM

Input: Supply recorded PGE2 EC50 with compound for CC(=O)CSc1nc(-c2cccs2)c(C#N)c(=O)[nH]1 here.
Output: 2.81 nM

Input: Read off the recorded PGE2 EC50 with compound for O=S(=O)(c1cccc(C(F)(F)F)c1)N1c2ccccc2-n2cccc2[C@H]1c1cccnc1
Output: 1.09 nM

Input: Fill in PGE2 EC50 with compound for record CCOC(=O)c1c(/N=C/C2C(=O)CCCC2=O)sc2c1CCCC2
Output: 1.32 nM

Input: Return PGE2 EC50 with compound (reported value) for this compound: Cc1cc(SCC(=O)NCCC2=CCCCC2)nc2ccccc12
Output: 2.66 nM

Input: Tell me its PGE2 EC50 with compound given CCCCOC(=O)Sc1nc2ccccc2o1 as the entry.
Output: 2.48 nM

Input: Name the recorded PGE2 EC50 with compound of the compound listed here: COC(=O)c1sc2nc(N3CCCCC3)c3c(c2c1N)CCCC3
Output: 0.85 nM

Input: Please list PGE2 EC50 with compound recorded for the compound CCOc1ccccc1NC(=O)c1c(Br)cnn1C
Output: 1.08 nM

Input: Supply measured PGE2 EC50 with compound of Cc1ccc2nc(-c3ccncc3)cc(-c3ccccc3)c2c1 in your reply.
Output: 0.31 nM

Input: Name the recorded PGE2 EC50 with compound of the compound listed here: OC1(c2ccc(Cl)cc2)CN(c2ccccc2)C2=[N+]1CCS2 (centres undefined)
Output: 1.16 nM

---

SYSTEM NAME: Prostaglandin E2 receptor EP2 subtype (Homo sapiens)
ASSAY PROCEDURE: EP2 receptor modulators, dose response, cell-based, human EP2, PGE2 EC50 shift (AID 1421)
TEST PARAMETERS: EP2-expressing cells, PGE2 EC50 shift by compound; measured here: PGE2 EC50 at 6.7 uM compound
Examples of molecules with documented PGE2 EC50 with compound follow.
Report as a plain number; the unit nM is understood.

Input: Give me measured PGE2 EC50 with compound, please, for this molecule: CC(C)c1ccc2c(c1)CCC1C(C)(C(N)=O)CCCC21C (stereo not drawn)
Output: 0.9

---

SYSTEM NAME: Prostaglandin E2 receptor EP2 subtype (Homo sapiens)
ASSAY PROCEDURE: EP2 receptor modulators, dose response, cell-based, human EP2, PGE2 EC50 shift (AID 1421)
TEST PARAMETERS: EP2-expressing cells, PGE2 EC50 shift by compound; measured here: PGE2 EC50 at 6.7 uM compound
RECORDED ENDPOINT: PGE2 EC50 with compound (pM)
Form entry: value (pM) — number only.

Examples with their reported PGE2 EC50 with compound follow.
Input: Answer with the recorded PGE2 EC50 with compound of CC(C)N(CCNC(=O)c1oc(=O)c2ccccc2c1-c1ccccc1)Cc1ccco1 only.
Output: 1600

Input: Retrieve PGE2 EC50 with compound measured for Cc1ccc(C(=O)Nc2ccccc2N2CCCCC2)cc1[N+](=O)[O-] and print it.
Output: 660

Input: Identify the reported PGE2 EC50 with compound for the following entry. Cc1cc(C)c(S(=O)(=O)c2ccccc2)c(OC(=O)c2cc(F)c(F)cc2Cl)n1
Output: 910

Input: Please report the measured PGE2 EC50 with compound for Cc1cc(SCC(=O)Nc2cccnc2Cl)nc2ccccc12
Output: 870

Input: Fill in PGE2 EC50 with compound for record CC12CCCC(O)(C1)C1CC(C)(C)C1CC2 (stereo unspecified)
Output: 1550

Others:
Input: Answer with reported PGE2 EC50 with compound of COc1ccc(-c2nnc3ccc(SCC(=O)Nc4nc5ccccc5s4)nn23)cc1OC
Output: 670

Input: Determine from records and report PGE2 EC50 with compound for Cc1cc(C(=O)Nc2cccc(/C=C/C(=O)O)c2)c(C)o1
Output: 360

Input: Answer with the recorded PGE2 EC50 with compound for the molecule listed here: O=S(=O)(c1ccc(F)cc1)c1snnc1-c1ccccc1
Output: 890

Input: Give PGE2 EC50 with compound for COC(=O)c1cc(Br)c(=O)n(-c2nccs2)c1
Output: 2710

Input: Answer with the recorded PGE2 EC50 with compound for the molecule listed here: O=C(/C(=C/O)N=Nc1ccccc1Cl)c1ccccc1
Output: 2680

Input: Respond only with PGE2 EC50 with compound recorded for Cc1noc(C)c1CSc1ncnc2sc3c(c12)CCC3
Output: 870

Input: Return value of PGE2 EC50 with compound for input CC(C)NC(=O)NC(=O)CSc1nnc(COc2ccccc2F)n1C(C)C1CC2CCC1C2 (stereo unspecified) , no commentary.
Output: 1060

Input: Specify PGE2 EC50 with compound for CC(=O)c1ccc2c(c1)c1ccccc1n2CC(C)C and stop.
Output: 1350

Input: Tell us which PGE2 EC50 with compound value is on record for Cc1nc2c(c(C)nn2-c2ccccc2)c(C)c1Cl
Output: 690

Input: Answer with the recorded PGE2 EC50 with compound of CCOP(=O)(c1ccccc1)c1nc(-c2ccccc2C)oc1N1CCCCC1 (stereo unspecified) only.
Output: 690

Input: Using known records, supply PGE2 EC50 with compound for Nc1cccc(OCc2nc(N)nc(N)c2-c2ccc(Cl)cc2)c1
Output: 1240

Input: Please report PGE2 EC50 with compound for the following molecule: Cc1ccc(-c2csc(Nc3ccc(C(=O)O)cc3)[n+]2Cc2ccccc2)cc1
Output: 770

Input: Specify PGE2 EC50 with compound for Cc1cc(C)n(-c2cc(-c3ccccc3)nc(C)n2)n1 and stop.
Output: 2600

Input: Respond only with PGE2 EC50 with compound recorded for C[C@@H]1CC[C@H]2C(C)(C)C3CC12CC[C@@]3(C)O (stereo partly specified)
Output: 320

Input: Could you please provide reported PGE2 EC50 with compound for Cc1cc(NC(=O)CN2CCCC(C)C2)n(-c2nc3ccccc3s2)n1 (stereo unspecified) ? Thanks!
Output: 750

Input: Answer with the recorded PGE2 EC50 with compound of CCOC(=O)c1c(NC(=O)CN2C(=O)NC3(CCCCCC3)C2=O)sc(C)c1-c1ccc(C)cc1 only.
Output: 760

Input: For the molecule COC(=O)c1cc2ccsc2n1Cc1ccccc1F , give its measured PGE2 EC50 with compound value.
Output: 830

Input: Tell me PGE2 EC50 with compound reported for O=C(OCC(=O)N1N=C(c2ccc(Cl)cc2)CC1c1ccco1)c1ccco1 (stereo unspecified)
Output: 1630

Input: Name the recorded PGE2 EC50 with compound of the molecule listed here: CCOC(=O)c1c(NC(=O)c2ccc(-n3cnnn3)cc2)sc2c1CCCC2
Output: 850

Input: Return PGE2 EC50 with compound for the following molecule: O=C(Nc1ccc2c(c1)OCO2)c1cccc2c1C(=O)N(C1CCCCC1)C2
Output: 800

Input: Give the reported value of PGE2 EC50 with compound for this record: COC(=O)CSc1nc(Cc2ccccc2)nc2ccccc12
Output: 2720
